- assay system: 14-3-3 protein gamma (Homo sapiens)
- experiment summary: modulators of 14-3-3 gamma protein binding, primary screen, biochemical, fluorescence polarization (AID 422);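 note: 0% = protein plus tracer without compound and 100% = blank with tracer alone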
- study conditions: FP, 14-3-3gamma / TMR-pS259-Raf peptide binding; at 40 µM; hits give high values
Screen size: about 160,000 compounds; about 310 (0.19%) were called active. For the sample, actives were picked, then their nearest neighbours and some compounds at random.
measured metric: inhibition (%)
Just the number in %, nothing appended.

Solved cases (3 shown):
**Query** Enter recorded inhibition with 14-3-3 protein gamma (Homo sapiens) for COc1cc2ccccc2cc1C(=O)Nc1nc(-c2c(OC)ccc3ccccc23)cs1 here.
**Result** -0.5

**Query** Enter recorded inhibition with 14-3-3 protein gamma (Homo sapiens) for CC(C)(C)c1ccc(C2SCC(=O)N2c2ccccc2F)cc1 (stereo not given) here.
**Result** -3.17

**Query** Enter recorded inhibition with 14-3-3 protein gamma (Homo sapiens) for COc1ccc(CSc2n[nH]c(C)n2)cc1Cl here.
**Result** -0.37

---
**Query** Enter recorded inhibition with 14-3-3 protein gamma (Homo sapiens) for CC1=C(C(=O)OCCc2ccccc2)C(c2cccc([N+](=O)[O-])c2)NC(=O)N1 (stereo not given) here.
**Result** -4.75

**Query** Enter recorded inhibition with 14-3-3 protein gamma (Homo sapiens) for Cc1ccccc1CN1CCN(CC(=O)NCc2cccs2)C1=O here.
**Result** -7.12

**Query** Enter recorded inhibition with 14-3-3 protein gamma (Homo sapiens) for CCCCNC(=O)C1CCC(=O)N1CCc1ccccc1 (stereo not given) here.
**Result** -1.84

====

- assay system: 14-3-3 protein gamma (Homo sapiens) (UniProt P61981)
- Sequence (P61981 whole entry, looked up): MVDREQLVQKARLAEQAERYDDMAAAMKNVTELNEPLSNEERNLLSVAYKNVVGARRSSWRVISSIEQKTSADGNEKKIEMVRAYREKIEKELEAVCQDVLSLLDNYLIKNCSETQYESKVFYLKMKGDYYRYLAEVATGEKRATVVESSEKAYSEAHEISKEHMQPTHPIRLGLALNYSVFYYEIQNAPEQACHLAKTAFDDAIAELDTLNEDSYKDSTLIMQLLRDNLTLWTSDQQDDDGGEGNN
- experiment summary: modulators of 14-3-3 gamma protein binding, primary screen, biochemical, fluorescence polarization (AID 422);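 note: 0% = protein plus tracer without compound and 100% = blank with tracer alone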
- study conditions: FP, 14-3-3gamma / TMR-pS259-Raf peptide binding; at 40 µM; hits give high values
The whole screen tested about 160,000 compounds, of which about 310 (0.19%) were called active. The sample as a whole holds a higher share of actives than the screen did.
measured metric: inhibition (%)
Just the number in %, nothing appended.

Solved cases (5 shown):
**Query** Determine its reported inhibition: O=C1NCCCC1C(=O)NC1CCCCC1 (stereo not drawn)
**Result** -10.1

**Query** Determine its reported inhibition: O=C(NC1CCCCNC1=O)c1ccc(N2CC3CC(C2)c2cccc(=O)n2C3)c(NC(=O)c2ccccc2Br)c1 (stereo not drawn)
**Result** -4.63

**Query** Determine its reported inhibition: CC(=O)Oc1ccccc1C(=O)NCCc1ccccc1
**Result** 3.04

**Query** Determine its reported inhibition: O=C1NC(c2ccc(Cl)cc2)C(C(=O)c2ccccc2)C(O)(C(F)(F)F)N1 (stereo not drawn)
**Result** 9.54

**Query** Determine its reported inhibition: Fc1ccc(Nc2nc(NCc3ccccc3)c3ccccc3n2)cc1
**Result** -3.64

---
**Query** Determine its reported inhibition: COc1cc([N+](=O)[O-])ccc1NC(=O)C1CC(=O)NC(=Nc2ccc(C)cc2)S1 (stereo not drawn)
**Result** 1.95

**Query** Determine its reported inhibition: O=[N+]([O-])c1ccc(N2CCN(S(=O)(=O)c3ccc4ccccc4c3)CC2)cc1NCc1ccco1
**Result** -5.05

**Query** Determine its reported inhibition: CCOc1ccc(S(=O)(=O)NC2CCCC2)c2cccnc12
**Result** -6.1

**Query** Determine its reported inhibition: O=c1cc(-c2ccccc2)nc(SCCOc2ccc(Cl)cc2)[nH]1
**Result** -2.33

**Query** Determine its reported inhibition: CC(C)CCNC(=O)c1ccc2c(c1)N(Cc1ccccc1)C(=O)CS2
**Result** 3.32

**Query** Determine its reported inhibition: O=C(c1ccco1)N1CCN(c2ccc([N+](=O)[O-])c(NCc3cccnc3)c2)CC1
**Result** 46.1

**Query** Determine its reported inhibition: C(=N\n1cnnc1)/c1cccnc1
**Result** -6.33

**Query** Determine its reported inhibition: COc1ccccc1CNC(=O)c1cc(-c2ccc(Br)s2)nc2ccccc12
**Result** -1.85

**Query** Determine its reported inhibition: CCC(C(=O)Nc1c2c(nn1-c1ccc([N+](=O)[O-])cc1)CSC2)c1ccccc1 (stereo not drawn)
**Result** -13.7

**Query** Determine its reported inhibition: CCOc1ccccc1C(=O)Nc1ccc(I)cc1C
**Result** -132

**Query** Determine its reported inhibition: CCCOc1ccccc1C1NC(=O)NC(C)=C1C(=O)OCC1CCCO1 (stereo not drawn)
**Result** 3.08

**Query** Determine its reported inhibition: CCCCN(CC)C(=O)C1c2cc(OC)c(OC)cc2C(=O)N(C)C1c1ccccc1F (stereo not drawn)
**Result** -7.13

**Query** Determine its reported inhibition: COc1cc(N=Cc2c(O)[nH]c3ccccc23)cc(OC)c1OC
**Result** 1.7

**Query** Determine its reported inhibition: S=c1[nH]ncn1-c1cccnc1
**Result** 40.8

**Query** Determine its reported inhibition: COC(=O)C1=CN(C)C=C(C(=O)OC)C1c1cc(OC)ccc1OC
**Result** 1.92

**Query** Determine its reported inhibition: CN1CCc2c(n(-c3ccccc3)c3ccccc23)C1=O
**Result** -14.8

**Query** Determine its reported inhibition: O=C(c1ccco1)N1CCN(c2cccc(Cl)c2)CC1
**Result** -9.3

**Query** Determine its reported inhibition: CCOc1ccc(N=Cc2c(O)c(C(=O)Nc3ccccc3C)cc3ccccc23)cc1
**Result** 79.8

From: PubChem BioAssay AID422
